Experiment: Inhibition of beta-lactamase NDM1 (unknown origin) expressed in Escherichia coli BL21(DE3) using cefotaxime/nitrocefin as substrate by measuring substrate hydrolysis at 200 uM by spectrophotometric analysis
Activity calls are given as the source filed them. No cut-off for these calls is given here.
Quantity kind: inhibition

[[record]]
chem_smiles = "Cc1ccccc1-c1n[nH]c(=S)n1/N=C/c1cc([N+](=O)[O-])ccc1O"
observed_measurement = "inactive"

[[record]]
chem_smiles = "S=c1[nH]nc(C(c2ccccc2)c2ccccc2)n1/N=C/c1ccc(OCc2ccccc2)cc1"
observed_measurement = "60%"

[[record]]
chem_smiles = "Cc1ccccc1-c1n[nH]c(=S)n1/N=C/c1ccccc1C#N"
observed_measurement = "60%"

[[record]]
chem_smiles = "Cc1ccccc1-c1n[nH]c(=S)n1/N=C/c1ccc([N+](=O)[O-])cc1"
observed_measurement = "inactive"


Request: Which value of inhibition has been reported for S=c1[nH]nc(-c2ccccc2)n1/N=C/c1ccccc1 in the records?
Result: inactive

Request: Now the same for Cc1ccccc1-c1n[nH]c(=S)n1/N=C/c1ccc(OCc2ccccc2)cc1
Result: inactive

Request: And the next one, S=c1[nH]nc(-c2cccc(Br)c2)n1/N=C/c1ccc(OCc2ccccc2)cc1 ?
Result: inactive
